EXPERIMENTAL SYSTEM: Aromatase (Homo sapiens)
Sequence (P11511 whole entry): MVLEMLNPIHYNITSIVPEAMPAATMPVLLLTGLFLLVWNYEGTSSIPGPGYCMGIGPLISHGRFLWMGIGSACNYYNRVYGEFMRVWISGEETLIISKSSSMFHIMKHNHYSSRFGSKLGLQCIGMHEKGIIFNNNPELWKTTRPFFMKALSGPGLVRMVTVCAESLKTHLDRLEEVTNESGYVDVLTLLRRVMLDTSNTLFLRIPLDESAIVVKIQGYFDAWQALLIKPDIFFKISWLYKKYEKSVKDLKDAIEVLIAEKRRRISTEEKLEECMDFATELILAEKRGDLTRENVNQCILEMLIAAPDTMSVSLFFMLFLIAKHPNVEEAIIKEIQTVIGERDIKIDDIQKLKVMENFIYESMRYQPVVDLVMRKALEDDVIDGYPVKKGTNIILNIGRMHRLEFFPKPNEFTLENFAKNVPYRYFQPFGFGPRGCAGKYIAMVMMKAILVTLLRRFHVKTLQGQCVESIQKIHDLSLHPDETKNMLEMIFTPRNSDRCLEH
Okay, here is how we bin by IC50: low: < 400 nM; middle: ≥ 400 nM and < 10000 nM; high: ≥ 10000 nM

>>> label_value("C[C@]12CC[C@H]3[C@@H](C(=O)C=C4CCCC[C@@]43CO)[C@@H]1CCC2O (stereo not given in full)")
"high"

Just checking, what class would you give CC(=O)OC1C[C@@]2(C)C(=CC1=O)C(=O)C[C@@H]1[C@@H]2CC[C@]2(C)C(=O)CC[C@@H]12 (stereo not given in full) here?
high

Just checking, what class would you give `C[C@]12CC[C@H]3[C@@H](C(=O)C=C4C(=O)CCC[C@@]43C=O)[C@@H]1CCC2=O` here?
high

Just checking, what class would you give `CCCCCCCC1=C[C@@H]2[C@H](CC[C@]3(C)C(=O)CC[C@@H]23)[C@@]2(C)CCC(=O)C=C12` here?
middle

Just checking, what class would you give `C[C@]12C=C(CCCCc3ccccc3)C(=O)C=C1CC[C@@H]1[C@@H]2CC[C@]2(C)C(=O)CC[C@@H]12` here?
high

Just checking, what class would you give CC[C@@H]1C[C@@H]2[C@H](CC[C@]3(C)C(O)CC[C@@H]23)[C@@]2(C)CCCC=C12 (stereo not given in full) here?
middle

Just checking, what class would you give `C[C@]12CCC(=O)C=C1C[C@H](Cc1ccccc1)[C@@H]1[C@@H]2CC[C@]2(C)C(=O)CC[C@@H]12` here?
low

Just checking, what class would you give `CCCC[C@@H]1C[C@@]2(C)C(=CC1=O)CC[C@@H]1[C@@H]2CC[C@]2(C)C(=O)CC[C@@H]12` here?
middle

Just checking, what class would you give `C[C@]12C=CC(=O)C=C1[C@@H](Cc1ccccc1)C[C@@H]1[C@@H]2CC[C@]2(C)C(=O)CC[C@@H]12` here?
low

Just checking, what class would you give `CO[C@H]1C[C@@H]2[C@H](CC[C@]3(C)C(=O)CC[C@@H]23)[C@@]2(C)CCCC=C12` here?
low

Just checking, what class would you give `C#C[C@@H]1C[C@@H]2[C@H](CC[C@]3(C)C(=O)CC[C@@H]23)[C@@]2(C)CCC(=O)C=C12` here?
middle

Just checking, what class would you give C[C@]12CC[C@H]3[C@@H](C[C@H]4O[C@]45C(=O)CCC[C@]35C)C1CCC2=O (stereo not given in full) here?
high

Just checking, what class would you give `C[C@]12CCC(=O)C=C1C[C@@H](SCCc1ccccc1)[C@@H]1[C@@H]2CC[C@]2(C)C(=O)CC[C@@H]12` here?
low

Just checking, what class would you give `CCOC1=C2C(=O)C[C@@H]3[C@H](CC[C@]4(C)C(=O)CC[C@@H]34)[C@@]2(C)CCC1=O` here?
middle
